Reference source for all entries: paper PMC5937145

System: E. coli K12
procedureDetails: MIC, inhibition of bacterial growth (turbidimetric, Bioscreen C)
Type: cell-based, Escherichia coli
measurementParameters: E. coli K12, Mueller-Hinton broth without Ca2+, 37°C, no increment of turbidity after 48 h, CLSI guidelines
Bridge positions count the residues as written; N and C are the ends. Ends that are not written are not given here. I, II: the chains in the order shown.

substance	MIC (µg/mL)
I: GIGKFLHSAKKFGKAFVGEIMNSGGC-NH2 / II: GIGKFLHSAKKFGKAFVGEIMNSGGC-NH2 (disulfide I:26-II:26 (inferred)) [MG2a homodimers]	7.8
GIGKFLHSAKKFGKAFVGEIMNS-NH2 [MG2a]	62.5
